Below, each entry is listed with its recorded pIC50.
- TARGET_OR_SYSTEM: I-E^d (Mus musculus, UniProt P01904+P01915)
- Sequence (P01904 26-255): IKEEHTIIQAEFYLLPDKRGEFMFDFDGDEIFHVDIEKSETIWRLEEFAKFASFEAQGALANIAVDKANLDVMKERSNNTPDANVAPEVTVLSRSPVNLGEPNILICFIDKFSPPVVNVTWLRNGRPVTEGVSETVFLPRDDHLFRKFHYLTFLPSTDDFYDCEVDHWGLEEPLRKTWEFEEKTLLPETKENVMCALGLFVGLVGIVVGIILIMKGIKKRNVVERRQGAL
- Sequence (P01915 27-264 limits assumed): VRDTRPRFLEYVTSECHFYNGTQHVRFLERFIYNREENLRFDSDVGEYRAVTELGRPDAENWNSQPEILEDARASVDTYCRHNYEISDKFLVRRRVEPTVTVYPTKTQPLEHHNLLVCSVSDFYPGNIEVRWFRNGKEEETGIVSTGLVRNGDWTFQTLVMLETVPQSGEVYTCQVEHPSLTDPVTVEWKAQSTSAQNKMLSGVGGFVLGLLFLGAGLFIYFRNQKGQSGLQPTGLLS
- ASSAY_PROCEDURE: biochemical
Note on units: pIC50 is unitless, being -log10 of a concentration expressed in mol/L.

Some solved cases for reference:
* CC[C@H](C)[C@H](N)C(=O)N[C@@H](C)C(=O)N[C@@H](Cc1ccc(O)cc1)C(=O)N[C@@H](CC(C)C)C(=O)N[C@H](C(=O)NCC(=O)N[C@@H](CO)C(=O)N[C@@H](CC(N)=O)C(=O)N[C@@H](CCSC)C(=O)N[C@H](C(=O)N[C@@H](CCC(N)=O)C(=O)N[C@@H](CCCNC(=N)N)C(=O)N[C@H](C(=O)N[C@H](C(=O)N[C@H](C(=O)O)[C@@H](C)CC)C(C)C)C(C)C)[C@@H](C)O)C(C)C [M49–63] | 4.53
* CC[C@H](C)[C@H](NC(=O)[C@H](CCCCN)NC(=O)[C@H](CCC(N)=O)NC(=O)[C@@H](N)CC(C)C)C(=O)N[C@@H](CCC(=O)O)C(=O)N[C@@H](CCCNC(=N)N)C(=O)N[C@@H](Cc1c[nH]c2ccccc12)C(=O)N[C@@H](Cc1ccccc1)C(=O)N[C@H](C(=O)N[C@@H](CCCNC(=N)N)C(=O)N[C@@H](CC(N)=O)C(=O)N1CCC[C@H]1C(=O)N[C@@H](Cc1ccccc1)C(=O)N[C@@H](Cc1ccccc1)C(=O)N[C@@H](C)C(=O)O)C(C)C [M29–43] | 5.81
* CC[C@H](C)[C@H](NC(=O)[C@H](CCCCN)NC(=O)[C@H](CCC(N)=O)NC(=O)[C@H](CC(C)C)NC(=O)[C@H](CCC(N)=O)NC(=O)[C@H](CCCNC(=N)N)NC(=O)[C@H](CCC(=O)O)NC(=O)CN)C(=O)N[C@@H](CCC(=O)O)C(=O)N[C@@H](CCCNC(=N)N)C(=O)N[C@@H](Cc1c[nH]c2ccccc12)C(=O)N[C@@H](Cc1ccccc1)C(=O)N[C@H](C(=O)N[C@@H](CCCNC(=N)N)C(=O)N[C@@H](CC(N)=O)C(=O)O)C(C)C [M25–39] | 4.88

// field: pIC50; key: CSCC[C@H](NC(=O)[C@H](CCCNC(=N)N)NC(=O)CNC(=O)[C@@H](NC(=O)[C@H](CCSC)NC(=O)[C@H](Cc1c[nH]c2ccccc12)NC(=O)[C@H](CCCCN)NC(=O)[C@@H](N)CCC(=O)O)[C@@H](C)O)C(=O)NCC(=O)N[C@@H](CCC(=O)O)C(=O)N[C@@H](CCCNC(=N)N)C(=O)N[C@@H](CCC(N)=O)C(=O)N[C@@H](CC(C)C)C(=O)N[C@@H](CCC(N)=O)C(=O)N[C@@H](CCCCN)C(=O)O [M17–31] ; value = 4.68

----------
- TARGET_OR_SYSTEM: H2-L^d (Mus musculus, UniProt P01897)
- Sequence (P01897 25-362): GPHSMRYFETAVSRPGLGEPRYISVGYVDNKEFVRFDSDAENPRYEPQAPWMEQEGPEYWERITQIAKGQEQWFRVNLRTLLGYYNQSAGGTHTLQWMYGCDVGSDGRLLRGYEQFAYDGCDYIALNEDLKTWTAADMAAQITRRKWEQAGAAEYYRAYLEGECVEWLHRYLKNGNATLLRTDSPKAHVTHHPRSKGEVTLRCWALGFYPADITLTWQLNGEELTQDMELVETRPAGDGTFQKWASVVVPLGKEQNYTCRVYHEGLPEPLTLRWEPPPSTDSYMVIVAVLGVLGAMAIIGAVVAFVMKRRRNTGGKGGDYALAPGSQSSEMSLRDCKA
- Sequence (P61769 21-119 partner): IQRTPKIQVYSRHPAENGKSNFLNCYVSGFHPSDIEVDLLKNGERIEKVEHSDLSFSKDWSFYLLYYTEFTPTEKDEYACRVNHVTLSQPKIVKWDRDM
Peptide text beside a SMILES is read from it.
Below, each entry is listed with its recorded IC50.

Some solved cases for reference:
- CC[C@H](C)[C@H](N)C(=O)N[C@H](C(=O)N[C@@H](C)C(=O)N[C@@H](CC(=O)O)C(=O)N[C@@H](CC(=O)O)C(=O)N[C@@H](CC(C)C)C(=O)N[C@H](C(=O)N[C@@H](C)C(=O)N[C@@H](C)C(=O)O)[C@@H](C)O)C(C)C [E335–343] (H-IVADDLTAA-OH): 38 µM
- CC(C)C[C@H](NC(=O)[C@@H](NC(=O)[C@H](C)NC(=O)[C@H](CC(N)=O)NC(=O)[C@H](Cc1ccc(O)cc1)NC(=O)[C@H](CS)NC(=O)[C@@H](N)C(C)C)C(C)C)C(=O)N[C@H](C(=O)N[C@@H](Cc1c[nH]cn1)C(=O)O)[C@@H](C)O [E59–67] (H-VCYNAVLTH-OH): 55.4 µM
- CC(C)C[C@H](NC(=O)[C@@H](NC(=O)[C@H](C)NC(=O)[C@H](CC(N)=O)NC(=O)[C@H](Cc1ccc(O)cc1)NC(=O)[C@@H](N)CS)C(C)C)C(=O)N[C@H](C(=O)N[C@@H](Cc1c[nH]cn1)C(=O)N[C@H](C(=O)O)C(C)C)[C@@H](C)O [E60–68] (H-CYNAVLTHV-OH): > 70 µM

Record CC(C)C[C@H](NC(=O)[C@@H](NC(=O)[C@H](C)NC(=O)[C@H](CC(N)=O)NC(=O)[C@@H](N)Cc1ccc(O)cc1)C(C)C)C(=O)N[C@H](C(=O)N[C@@H](Cc1c[nH]cn1)C(=O)N[C@H](C(=O)N[C@@H](CCCCN)C(=O)O)C(C)C)[C@@H](C)O [E61–69] (H-YNAVLTHVK-OH) / H2-L^d (Mus musculus, UniProt P01897), IC50 recorded as > 70 µM
